Numbers sourced from paper PMC9698358.

Target: TMV helicase (Tobacco mosaic virus, UniProt Q9IBK4)
Construct: helicase domain of the 126/183 kDa replicase
Sequence (Q9IBK4 entry or part of it): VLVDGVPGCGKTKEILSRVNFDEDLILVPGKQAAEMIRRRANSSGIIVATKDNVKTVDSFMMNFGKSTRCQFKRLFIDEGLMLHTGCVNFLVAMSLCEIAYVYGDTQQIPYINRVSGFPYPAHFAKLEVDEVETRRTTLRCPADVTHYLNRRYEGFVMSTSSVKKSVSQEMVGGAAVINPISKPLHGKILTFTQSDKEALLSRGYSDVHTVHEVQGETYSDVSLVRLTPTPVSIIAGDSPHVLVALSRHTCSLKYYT
Assay: ATPase activity, malachite green phosphate release
Format: biochemical
METRIC_NAME: inhibition at 200 µM

The examples below pair each entry with its known result.
[
  {
    "COMPOUND": "COc1cc(/C=C/C(=O)O)ccc1O [FA, 3-methoxy-4-hydroxycinnamic acid]",
    "VALUE_OBSERVED": "26.4%"
  },
  {
    "COMPOUND": "COC(=O)/C=C/c1ccc(OC[C@H](O)CN2CCOCC2)c(OC)c1",
    "VALUE_OBSERVED": "50.6%"
  },
  {
    "COMPOUND": "COC(=O)/C=C/c1ccc(OC[C@@H](O)CN2CCOCC2)c(OC)c1",
    "VALUE_OBSERVED": "44.5%"
  }
]

Now consider a different compound.
Retrieve inhibition at 200 µM measured for COC(=O)/C=C/c1ccc(OCC(O)CN2CCN(Cc3ccccc3C)CC2)c(OC)c1 (stereo not shown) and print it.
47%
